Please provide measured IC50 for the entries that follow.
- ASSAY_TARGET: UniProtKB Q8IL11
- Sequence (Q8IL11 whole entry): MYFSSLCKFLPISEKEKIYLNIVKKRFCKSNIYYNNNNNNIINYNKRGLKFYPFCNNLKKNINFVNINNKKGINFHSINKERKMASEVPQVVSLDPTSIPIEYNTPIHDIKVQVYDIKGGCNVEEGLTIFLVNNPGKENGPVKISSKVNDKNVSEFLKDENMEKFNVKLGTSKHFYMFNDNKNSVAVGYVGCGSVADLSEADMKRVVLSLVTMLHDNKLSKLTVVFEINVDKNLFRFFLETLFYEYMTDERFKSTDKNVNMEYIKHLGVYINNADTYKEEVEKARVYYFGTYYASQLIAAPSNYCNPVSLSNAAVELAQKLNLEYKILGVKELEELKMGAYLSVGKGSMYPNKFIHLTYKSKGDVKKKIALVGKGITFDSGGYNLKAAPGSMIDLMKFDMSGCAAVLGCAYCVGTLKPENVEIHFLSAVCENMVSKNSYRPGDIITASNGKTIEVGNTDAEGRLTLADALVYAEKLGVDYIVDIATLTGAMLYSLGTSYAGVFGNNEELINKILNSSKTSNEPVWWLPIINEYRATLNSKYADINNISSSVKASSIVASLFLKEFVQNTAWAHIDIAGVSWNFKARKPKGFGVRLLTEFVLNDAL
- METHOD_SUMMARY: P. falciparum M17LAP inhibitors, primary screen, biochemical, fluorogenic H-Leu-NHMec substrate, 1536-well (AID 1619)
- Assay type: functional
Activity calls are given as the source filed them.

The examples below pair each entry with its known result.
COMPOUND: COc1ccc(CC(CC(=O)O)C(=O)Nc2ccccc2)cc1 (stereo not given)
IC50: 47.2 µM (active)

COMPOUND: Cc1ccc(S(=O)(=O)Nc2nc3c(s2)C(=O)CC(C)(C)C3)cc1
IC50: 94.4 µM (active)

COMPOUND: CC(C)S(=O)(=O)C1=NSC2=NC(=O)/C(=C\c3ccc(-c4ccccc4)o3)C(=N)N21
IC50: 12.6 µM (active)

Would you be so kind as to report IC50 for each listed record?
1. CC(C)(C)c1ccc(COc2ccsc2C(=O)O)cc1
2. N#C/C(=C/c1ccc(N2CCOCC2)o1)C(=O)NC1CCCCC1

stdout:
1. 11.5 µM (active)
2. 109 µM (active)

---

- METHOD_SUMMARY: HEp-2 cell cytotoxicity, dose response, cytotoxicity control for RSV inhibitor project, HTS (AID 2410)
- Type: functional
- SETTINGS: human respiratory syncytial virus
Active and inactive are the calls of the source.
OUTCOME_MEASURE: CC50

Would you please look over these solved cases?
MOLECULE: COC(=O)CSc1nc(N)c2c3c(sc2n1)C(c1ccccc1)SC(c1ccccc1)C3 (centres undefined)
ENDPOINT_RESULT: > 50 µM (active)
//
MOLECULE: COc1c(OC(C)=O)ccc(/C=C/c2ccc3cccc(OC)c3n2)c1[N+](=O)[O-]
ENDPOINT_RESULT: > 50 µM (active)
//
MOLECULE: COc1ccc(-c2nc(CSCC(=O)NCCC3=CCCCC3)c(C)o2)cc1OC
ENDPOINT_RESULT: > 50 µM (active)

Lookup result for "Oc1nc(NN=C(S)NC2CCCCC2)nc2c1C1(CCCC1)Cc1ccccc1-2" ; measured CC50: 25.7 µM (active)

---

- ASSAY_TARGET: Corticotropin-releasing factor receptor 2/Corticotropin-releasing factor-binding protein (Homo sapiens, UniProt P24387+Q13324)
- Sequence (Q13324 whole entry): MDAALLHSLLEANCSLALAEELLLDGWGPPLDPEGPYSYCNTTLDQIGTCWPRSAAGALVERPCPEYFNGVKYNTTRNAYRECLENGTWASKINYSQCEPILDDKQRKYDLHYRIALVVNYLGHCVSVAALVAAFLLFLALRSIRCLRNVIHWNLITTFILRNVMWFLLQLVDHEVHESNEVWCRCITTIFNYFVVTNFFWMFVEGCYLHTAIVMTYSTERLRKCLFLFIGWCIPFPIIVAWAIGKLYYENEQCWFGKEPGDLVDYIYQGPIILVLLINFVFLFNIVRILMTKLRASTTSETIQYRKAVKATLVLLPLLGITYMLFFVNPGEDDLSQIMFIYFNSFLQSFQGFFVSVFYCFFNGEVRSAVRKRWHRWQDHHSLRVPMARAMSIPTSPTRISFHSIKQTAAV
- Sequence (P24387 whole entry): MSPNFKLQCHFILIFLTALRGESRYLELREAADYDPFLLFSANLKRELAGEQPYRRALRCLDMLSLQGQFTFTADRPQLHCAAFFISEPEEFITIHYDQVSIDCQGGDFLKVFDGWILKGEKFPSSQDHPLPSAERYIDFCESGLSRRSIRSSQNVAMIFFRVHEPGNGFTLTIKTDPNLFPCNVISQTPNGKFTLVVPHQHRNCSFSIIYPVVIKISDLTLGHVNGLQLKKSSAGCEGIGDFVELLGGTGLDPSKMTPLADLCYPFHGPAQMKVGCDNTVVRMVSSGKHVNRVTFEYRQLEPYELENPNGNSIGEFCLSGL
- METHOD_SUMMARY: Dose Response confirmation of uHTS hits for small molecule antagonists of the CRF-binding protein and CRF-R2 receptor complex.
- Assay type: functional
- SETTINGS: read-out: IC50_Mean
Activity calls are given as the source filed them.
Select the correct class. Options are active, inactive and nothing else.

Here's what some known entries look like.
COMPOUND: Cn1c(-c2ccc(-c3ccccc3)cc2)c[nH]c1=S
CATEGORY_LABEL: inactive
--
COMPOUND: COc1ccc(C(CC(=O)O)c2ccc3c(c2)OCO3)cc1 (configuration not stated)
CATEGORY_LABEL: inactive
--
COMPOUND: COc1ccc(Cl)cc1NC(=O)c1ccoc1C
CATEGORY_LABEL: inactive

stdin: Returns: the outcome recorded for "CN(c1ccccc1)P(=O)(N1CC1)N1CC1" in this assay.
stdout: inactive

stdin: Name the outcome recorded for "O=c1oc(CCO)cc2ccc(Br)cc12" in the assay.
stdout: inactive

stdin: What was the test verdict on "Cc1ccc(-c2c[n+](CC(=O)Nc3nc(-c4ccc(F)cc4)cs3)c3n2CCC3)cc1" ?
stdout: inactive

stdin: Please share the test call associated with COc1ccc(Cl)cc1NC(=O)C(C)NC(c1ccccc1)c1ccccc1 (configuration not stated) .
stdout: active

stdin: Record request — test call for "COc1cc(CC(=O)NCc2cccs2)cc(OC)c1OC"
stdout: inactive

stdin: Please let me know the test result on file for "CCOC(=O)NNC(=O)c1[nH]c2ccc(Br)cc2c1-c1ccccc1" .
stdout: inactive

stdin: # outcome recorded in this test, key = "Cc1n[nH]c(=S)n(/N=C/c2cccs2)c1=O"
stdout: inactive

stdin: Name the outcome recorded for CC(c1ccco1)N(C(=O)c1ccccc1NS(=O)(=O)c1ccc(Cl)c([N+](=O)[O-])c1)c1ccccn1 (configuration not stated) in the assay.
stdout: active

stdin: Which outcome did this test record for the compound Cc1cc(C)cc(NC(=O)C2CCCN(c3nccc(C)n3)C2)c1 (configuration not stated) ?
stdout: inactive

---

- ASSAY_TARGET: Corticotropin-releasing factor receptor 2/Corticotropin-releasing factor-binding protein (Homo sapiens, UniProt P24387+Q13324)
- METHOD_SUMMARY: Dose Response confirmation of uHTS hits for small molecule antagonists of the CRF-binding protein and CRF-R2 receptor complex.
- Type: functional
- SETTINGS: read-out: IC50_Mean
Activity calls are given as the source filed them.
Mark one answer only. Choices: yes for active, no for inactive

COMPOUND: CCOC(=O)C(NCc1ccccn1)(NC(=O)c1cccnc1)C(F)(F)F (stereo not given)
CATEGORY_LABEL: no

COMPOUND: C#CCOCCOCCOCCNc1nc(N2CCN(C(=O)Cn3cc(CCO)nn3)CC2)nc(N2CCN(C(=O)[C@H](CCCCN)n3cc(CC(C)O)nn3)CC2)n1 (stereo not given in full)
CATEGORY_LABEL: no

COMPOUND: O=C(Nc1cc(-c2ccccc2)sc1C(=O)O)c1cccc(F)c1
CATEGORY_LABEL: yes

COMPOUND: N=C(CN1CCCCC1)NS(=O)(=O)c1cc(Cl)cc(Cl)c1
CATEGORY_LABEL: no

Moving on to another compound below.
stdin: What was the test verdict on "COc1ccc(NC(=O)c2cc(-c3ccccc3OC)on2)cc1" ?
stdout: no

---

- ASSAY_TARGET: Corticotropin-releasing factor receptor 2/Corticotropin-releasing factor-binding protein (Homo sapiens, UniProt P24387+Q13324)
- Sequence (Q13324 whole entry): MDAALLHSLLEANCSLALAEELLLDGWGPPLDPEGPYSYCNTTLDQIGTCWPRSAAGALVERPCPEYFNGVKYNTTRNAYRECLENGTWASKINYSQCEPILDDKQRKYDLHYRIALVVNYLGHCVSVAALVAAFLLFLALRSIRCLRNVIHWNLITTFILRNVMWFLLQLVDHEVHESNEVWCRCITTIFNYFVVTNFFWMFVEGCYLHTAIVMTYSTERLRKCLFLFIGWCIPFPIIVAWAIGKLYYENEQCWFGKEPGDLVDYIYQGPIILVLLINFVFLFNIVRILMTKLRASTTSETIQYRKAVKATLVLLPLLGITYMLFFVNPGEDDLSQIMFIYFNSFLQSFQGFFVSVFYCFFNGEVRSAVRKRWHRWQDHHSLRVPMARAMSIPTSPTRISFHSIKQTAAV
- Sequence (P24387 whole entry): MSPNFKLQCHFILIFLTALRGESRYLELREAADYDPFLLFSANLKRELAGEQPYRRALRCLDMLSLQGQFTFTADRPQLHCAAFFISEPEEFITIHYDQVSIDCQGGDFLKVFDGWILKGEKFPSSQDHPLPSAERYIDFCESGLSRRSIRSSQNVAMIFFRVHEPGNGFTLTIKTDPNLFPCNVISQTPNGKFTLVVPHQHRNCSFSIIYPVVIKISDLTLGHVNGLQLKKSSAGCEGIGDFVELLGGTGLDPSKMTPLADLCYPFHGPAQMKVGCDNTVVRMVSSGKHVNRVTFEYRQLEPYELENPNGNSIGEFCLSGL
- METHOD_SUMMARY: activators of CRF receptor 2 with binding protein – uHTS hits, confirmation (AID 602473)
- Assay type: functional
- SETTINGS: read-out: EC50_Mean
Calls of active or inactive are those of the source.
One label from this list, please: active, inactive

COMPOUND: Cc1cc(C)cc(NC(=O)C2CCCN(c3nccc(C)n3)C2)c1 (stereo not given)
CATEGORY_LABEL: inactive

COMPOUND: O=c1oc(CCO)cc2ccc(Br)cc12
CATEGORY_LABEL: inactive

COMPOUND: Cc1ccc(-c2c[n+](CC(=O)Nc3nc(-c4ccc(F)cc4)cs3)c3n2CCC3)cc1
CATEGORY_LABEL: inactive

COMPOUND: Cc1n[nH]c(=S)n(/N=C/c2cccs2)c1=O
CATEGORY_LABEL: inactive

COMPOUND: COc1ccc(C(CC(=O)O)c2ccc3c(c2)OCO3)cc1 (stereo not given)
CATEGORY_LABEL: inactive

COMPOUND: COc1ccc(NC(=O)c2cc(-c3ccccc3OC)on2)cc1
CATEGORY_LABEL: inactive

COMPOUND: O=C(Nc1cc(-c2ccccc2)sc1C(=O)O)c1cccc(F)c1
CATEGORY_LABEL: inactive

COMPOUND: CCOc1ccc(NS(=O)(=O)c2ccc(C(=O)NCC3(N4CCCCC4)CCCCC3)cc2)cc1
CATEGORY_LABEL: active

COMPOUND: N=C(CN1CCCCC1)NS(=O)(=O)c1cc(Cl)cc(Cl)c1
CATEGORY_LABEL: inactive

COMPOUND: CC(c1ccco1)N(C(=O)c1ccccc1NS(=O)(=O)c1ccc(Cl)c([N+](=O)[O-])c1)c1ccccn1 (stereo not given)
CATEGORY_LABEL: inactive

stdin: Hey, what did the test say about "COc1cc(CC(=O)NCc2cccs2)cc(OC)c1OC" ?
stdout: inactive

stdin: Which outcome was entered for the compound "Cn1c(-c2ccc(-c3ccccc3)cc2)c[nH]c1=S" in this test?
stdout: inactive

stdin: Hi, sorry to bother you, what did the test record for "COc1ccc(Cl)cc1NC(=O)c1ccoc1C" ?
stdout: inactive

stdin: Could you please tell me the result logged for "COc1ccc(N(CC(=O)NN=C2CCCC2)S(=O)(=O)c2ccccc2)cc1Cl" in this assay?
stdout: active

stdin: Assay result, entry "CCOC(=O)NNC(=O)c1[nH]c2ccc(Br)cc2c1-c1ccccc1" — outcome?
stdout: inactive

stdin: Can you look up the reported call for "Cc1ccc(C)c(NC(=O)c2ccccc2O)c1" for me?
stdout: inactive

stdin: Which outcome was entered for the compound "CC1=CC(C)(C)N(C(=O)c2ccccc2)c2ccc(C)cc21" in this test?
stdout: active

stdin: Called result for C#CCOCCOCCOCCNc1nc(N2CCN(C(=O)Cn3cc(CCO)nn3)CC2)nc(N2CCN(C(=O)[C@H](CCCCN)n3cc(CC(C)O)nn3)CC2)n1 (stereo not given in full)
stdout: inactive

stdin: Recorded test call requested for "COC(=O)c1sc(NC(=S)NC(=O)c2cccc(C)c2)nc1C"
stdout: active

stdin: Given "CN(c1ccccc1)P(=O)(N1CC1)N1CC1" , state the outcome it received in this test.
stdout: inactive
